SUBJECT_OF_TEST: T1, Bre1-LR (Bre1 residues 227–700, LBD and RING domains), 6× histidine tag (budding yeast, UniProt Q07457 227-700)
T1 construct: two Bre1 polypeptides form the dimeric coiled-coils of the LBD in the crystal structure; also called WT; source: E. coli BL21 Rosetta (DE3), purified (Ni-NTA, heparin, gel filtration)
T1 sequence (looked up): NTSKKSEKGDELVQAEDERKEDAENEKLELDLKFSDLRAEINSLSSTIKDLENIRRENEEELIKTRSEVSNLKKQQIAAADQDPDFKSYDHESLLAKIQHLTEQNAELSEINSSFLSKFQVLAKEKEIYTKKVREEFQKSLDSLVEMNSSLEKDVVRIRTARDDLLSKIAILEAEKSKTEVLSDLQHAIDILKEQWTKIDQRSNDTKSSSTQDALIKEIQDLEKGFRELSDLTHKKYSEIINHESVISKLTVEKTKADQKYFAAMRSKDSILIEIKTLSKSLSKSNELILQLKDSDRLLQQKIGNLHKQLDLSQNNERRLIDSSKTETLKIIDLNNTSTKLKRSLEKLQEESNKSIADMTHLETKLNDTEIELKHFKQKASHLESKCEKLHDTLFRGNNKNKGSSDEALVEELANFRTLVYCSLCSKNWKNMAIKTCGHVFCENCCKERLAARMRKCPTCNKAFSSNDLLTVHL
PROTOCOL: SPR; Lge1-CT immobilised on a CM5 chip, Bre1-LR flown over; Biacore 8K, 25°C, 20 mM HEPES (pH 7.5), 200 mM sodium chloride, 0.02% Tween 20
ASSAY_CONTEXT: both partners purified
The following binders are shown together with reported kon values.
A number alone suffices; assume M⁻¹ s⁻¹.

Solved entries:
BINDER	UNITS_OF_MEASURE	REPORTED
Lge1-CT L316N (domain or fragment, budding yeast, UniProt Q02796 261-332, looked up, Lge1, budding yeast, residues 261-332; source: E. coli BL21 Rosetta (DE3): cleared cell extract on chitin resin (pull-down); purified (chitin, heparin, gel filtration) for ITC and SPR) KNVKKTNNTESECEKAREVFKESDSIDSALEELNLKINSNELELRLLNNQCDKHANNIQLTQEKLDSLLLMQ	M⁻¹ s⁻¹	84000
Lge1-CT K324E (domain or fragment, budding yeast, UniProt Q02796 261-332, looked up, Lge1, budding yeast, residues 261-332; source: E. coli BL21 Rosetta (DE3): cleared cell extract on chitin resin (pull-down); purified (chitin, heparin, gel filtration) for ITC and SPR) KNVKKTNNTESECEKAREVFKESDSIDSALEELNLKINSNELELRLLNNQCDKHALNIQLTQEELDSLLLMQ	M⁻¹ s⁻¹	102000

Consider now this further binder.
[ask] Fill in: kon of Lge1-CT L320N (domain or fragment, budding yeast, UniProt Q02796 261-332, looked up, Lge1, budding yeast, residues 261-332; source: E. coli BL21 Rosetta (DE3): cleared cell extract on chitin resin (pull-down); purified (chitin, heparin, gel filtration) for ITC and SPR) KNVKKTNNTESECEKAREVFKESDSIDSALEELNLKINSNELELRLLNNQCDKHALNIQNTQEKLDSLLLMQ is ___
[reply] 82000
